- PROCEDURE_DETAILS: Half life in Beagle dog at 5 mg/kg, po
- Type: ADME, organism-based, Canis lupus familiaris
- Design: dose 5 mg/kg, route oral
- MEASUREMENT_CONTEXT: in vivo
ENDPOINT: half-life

> print(dat)
                            chemical.string  assay.value
1  Cn1c(=O)c(Oc2ccc(F)cc2F)cc2cnc(NC(CCO)CCO)nc21       9.18 h

* * *

- PROCEDURE_DETAILS: Clearance in Beagle dog at 5 mg/kg, iv
- Type: ADME, organism-based, Canis lupus familiaris
- Parameters: dose 5 mg/kg, route intravenous
- MEASUREMENT_CONTEXT: in vivo
ENDPOINT: clearance (mL/min/kg)

> print(dat)
                                   compound   endpoint  assay.value
1  Cn1c(=O)c(Oc2ccc(F)cc2F)cc2cnc(NC(CCO)CCO)nc21 [PAMAPIMOD]  clearance         12.5

* * *

- PROCEDURE_DETAILS: Volume of distribution at steady state in Beagle dog at 5 mg/kg, iv
- Format: ADME, organism-based, Canis lupus familiaris
- Set-up: dose 5 mg/kg, route intravenous
- MEASUREMENT_CONTEXT: in vivo, read-out: Vdss
ENDPOINT: Vd

> print(dat)
                            chemical.string  assay.value
1  Cn1c(=O)c(Oc2ccc(F)cc2F)cc2cnc(NC(CCO)CCO)nc21    12.7 L/kg

* * *

- PROCEDURE_DETAILS: AUC (0 to last) in Beagle dog at 5 mg/kg, po
- Assay type: ADME, organism-based, Canis lupus familiaris
- Parameters: dose 5 mg/kg, route oral, time 0 - last
- MEASUREMENT_CONTEXT: plasma
ENDPOINT: AUC(0-t) (ng·h/mL)

> print(dat)
                            chemical.string  assay.value
1  Cn1c(=O)c(Oc2ccc(F)cc2F)cc2cnc(NC(CCO)CCO)nc21         5220

* * *

- System: Blood
- PROCEDURE_DETAILS: Inhibition of TNFalpha-induced IL1-beta production in human whole blood after 2 to 5 hrs by ELISA
- Assay type: functional, tissue-based
pIC50: −log10 of the molar value.
ENDPOINT: pIC50

> print(dat)
                             chemical.string  endpoint  readout.relation  assay.value
 1  C[C@H](Cn1ncnn1)Nc1ncc2cc(Oc3ccc(F)cc3F)c(=O)n(C)c2n1     pIC50                 =         6.50
 2  C[C@@H](CS(C)(=O)=O)Nc1ncc2cc(Oc3ccc(F)cc3F)c(=O)n(C)c2n1     pIC50                 <         5.52
 3  Cn1c(=O)c(Cc2ccccc2F)cc2cnc(NC3CCOCC3)nc21     pIC50                 =         6.39
 4  Cn1c(=O)c(Oc2ccc(F)cc2F)cc2cnc(NC3CCOCC3)nc21     pIC50                 =         6.77
 5  O=c1c(Oc2ccc(F)cc2F)cc2cnc(NC3CCOCC3)nc2n1C[C@H](O)CO     pIC50                 =         7.82
 6  O=c1c(Oc2ccc(F)cc2F)cc2cnc(NC3CCOCC3)nc2n1CCCO     pIC50                 =         7.85
 7  C[C@@H](Cn1ncnn1)Nc1ncc2cc(Oc3ccc(F)cc3F)c(=O)n(C)c2n1     pIC50                 =         8.05
 8  Cn1c(=O)c(Oc2ccccc2)cc2cnc(NC3CCOCC3)nc21     pIC50                 =         6.35
 9  Cn1c(=O)c(Sc2ccccc2F)cc2cnc(NC3CCOCC3)nc21     pIC50                 =         6.14
10  Cn1c(=O)c(Oc2ccccc2F)cc2cnc(NC3CCOCC3)nc21     pIC50                 =         7.19
11  Cn1c(=O)c(Oc2ccc(F)cc2F)cc2cnc(N[C@H]3CCOC3)nc21     pIC50                 =         6.43
